These measurements were taken from patent US20260209208A1.

Molecular target: recombinant human PMYT-1 (Myt1 kinase) (Homo sapiens, UniProt Q99640)
Construct: full length PMYT-1 was expressed by baculovirus in insect cells using a N-terminal GST tag
Sequence (Q99640 1-499): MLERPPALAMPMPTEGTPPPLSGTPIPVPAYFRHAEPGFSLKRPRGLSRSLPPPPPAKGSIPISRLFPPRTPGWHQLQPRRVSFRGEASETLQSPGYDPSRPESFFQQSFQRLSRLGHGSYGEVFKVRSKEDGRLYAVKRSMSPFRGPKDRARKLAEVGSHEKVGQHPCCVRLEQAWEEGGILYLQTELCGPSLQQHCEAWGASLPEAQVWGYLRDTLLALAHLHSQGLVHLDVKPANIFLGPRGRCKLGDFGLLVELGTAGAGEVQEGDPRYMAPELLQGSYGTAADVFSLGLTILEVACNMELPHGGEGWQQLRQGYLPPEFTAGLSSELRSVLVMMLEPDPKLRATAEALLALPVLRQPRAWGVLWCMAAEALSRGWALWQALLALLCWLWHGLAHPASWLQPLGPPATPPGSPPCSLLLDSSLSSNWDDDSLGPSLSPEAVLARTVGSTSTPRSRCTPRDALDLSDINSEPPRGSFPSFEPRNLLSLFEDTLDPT
Assay: LanthaScreen Europium (Eu) Kinase Binding Assay for Myt1 kinase
Details: TR-FRET tracer 178 displacement, GST-tagged full length PMYT-1, 60 min, room temperature; mean IC50; read-out: LANTHA Kinase Binding for PMyt1
pIC50: −log10 of the molar value.
readoutType: pIC50

What value of pIC50 has been recorded for this entry: Cc1ccc(O)c(C)c1-n1nc(-c2ccsc2)c(C(N)=O)c1N
≥ 8.00

New cases:
Fill blank: measured pIC50 of the compound Cc1ccc(O)c(C)c1-n1nc(-c2ccc(Cl)o2)c(C(N)=O)c1N is ____.
≥ 8.00

Endpoint output: pIC50 of Cc1ccc(O)c(C)c1-n1nc(-c2cc(-c3ccccc3)co2)c(C(N)=O)c1N . Value?
≥ 8.00

For the compound NC(=O)c1c(-c2ccco2)nn(-c2c(Cl)ccc(O)c2Cl)c1N , what pIC50 is on record?
7.00 to 8.00

Please give the measured pIC50 for this compound: Cc1ccc(O)c(C)c1-n1nc(-c2cc(C3CC3)co2)c(C(N)=O)c1N
7.00 to 8.00
